Overview of recorded IC50 for various molecules
Target: EF2K (Homo sapiens, UniProt O00418)
Construct: host or cells: LN-229 cell lysate
Sequence (O00418 whole entry): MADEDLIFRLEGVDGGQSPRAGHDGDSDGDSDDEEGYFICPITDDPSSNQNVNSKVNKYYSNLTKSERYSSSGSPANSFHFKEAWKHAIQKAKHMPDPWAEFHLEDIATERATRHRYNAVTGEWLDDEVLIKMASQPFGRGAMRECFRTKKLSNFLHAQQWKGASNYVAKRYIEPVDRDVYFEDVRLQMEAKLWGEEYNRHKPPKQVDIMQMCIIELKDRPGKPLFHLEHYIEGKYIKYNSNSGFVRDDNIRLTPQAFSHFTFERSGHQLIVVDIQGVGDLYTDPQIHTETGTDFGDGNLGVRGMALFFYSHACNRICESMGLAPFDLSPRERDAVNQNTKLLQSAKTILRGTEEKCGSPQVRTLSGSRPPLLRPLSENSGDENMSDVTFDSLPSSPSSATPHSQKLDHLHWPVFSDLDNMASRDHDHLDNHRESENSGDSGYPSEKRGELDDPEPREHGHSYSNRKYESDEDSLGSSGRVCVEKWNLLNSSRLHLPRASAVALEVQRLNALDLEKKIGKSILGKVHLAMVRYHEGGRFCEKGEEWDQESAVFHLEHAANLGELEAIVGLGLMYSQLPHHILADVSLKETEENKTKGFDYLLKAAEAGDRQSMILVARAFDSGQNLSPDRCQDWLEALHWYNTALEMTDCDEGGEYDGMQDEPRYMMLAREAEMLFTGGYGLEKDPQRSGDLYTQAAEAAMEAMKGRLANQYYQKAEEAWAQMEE
Assay: Biochemical EF2K lysate-based kinase assay (AlphaLISA p-eEF2 Thr56)
Conditions: pIC50 = -log IC50 (M), read-out: eEF2K_C_alphalisa pIC50 (converted)

- MOLECULE: "NS(=O)(=O)N1CCNC(=O)CN2CCN(CC2)Cc2cccc(c2)Nc2nccc(n2)-c2ccc(nc2)C1 [Compound 134]"
  IC50, M: "1.29e-06"
- MOLECULE: "CN1CCCN(C)c2ccc(cn2)-c2ccnc(n2)Nc2cccc(c2)CN2CCC(CC2)CC1=O [Compound 81]"
  IC50, M: "2.4e-06"
- MOLECULE: "CC1CN2CCN1CC(=O)NCCCNc1ccc(cn1)-c1ccnc(n1)Nc1cccc(c1)C2 (single isomer, unassigned) [Compound 136]"
  IC50, M: "1.45e-07"
- MOLECULE: "O=C1CN2CCN(CC2)Cc2cc(ccc2Cl)Nc2nccc(n2)-c2ccc(nc2)NCCCN1 [Compound 120]"
  IC50, M: "1.74e-07"
- MOLECULE: "CN1CCCN(C)c2ccc(cn2)-c2ccnc(n2)Nc2cccc(c2)CN2CCN(CC2)C(c2ccccc2)C1=O (stereo not drawn) [Compound 64]"
  IC50, M: "7.24e-07"
- MOLECULE: "CN1CCCN(C)c2ccc(cn2)-c2ccnc(n2)Nc2cccc(c2)CN2CCN(CC1=O)CC2COCCO (stereo not drawn) [Compound 103]"
  IC50, M: "1.95e-07"
- MOLECULE: "O=C1CN2CCN(CC2)Cc2cccc(c2)Nc2nccc(n2)-c2ccc(nc2)NCCCN1 [Compound 31]"
  IC50, M: "1.07e-07"
- MOLECULE: "CN1CCN(C)c2ccc(cn2)-c2ccnc(n2)Nc2cccc(c2)CN2CCN(C)C(CC1=O)C2 (stereo not drawn) [Compound 73]"
  IC50, M: "1.82e-06"
- MOLECULE: "CN1CCCN(C)c2ccc(cn2)-c2ccnc(n2)Nc2cccc(c2)CN2CCN(CC2)C1=O [Compound 76]"
  IC50, M: "2.34e-07"
- MOLECULE: "CN1CCCN(C)c2ccc(cn2)-c2ccnc(n2)Nc2cccc(c2)CC2(O)CCN(CC2)CC1=O [Compound 114]"
  IC50, M: "4.47e-06"
- MOLECULE: "O=C1CN2CCN(CC2=O)Cc2cccc(c2)Nc2nccc(n2)-c2ccc(nc2)NCCCN1 [Compound 77]"
  IC50, M: "2.09e-06"
- MOLECULE: "O=C1CN2CCN(CC2)Cc2cccc(c2)Nc2nccc(n2)-c2ccc(nc2)CN(CC2CCCO2)CCN1 (stereo not drawn) [Compound 40]"
  IC50, M: "1.35e-07"
- MOLECULE: "O=C1CN2CCN(Cc3cccc(c3)Nc3nccc(n3)-c3ccc(nc3)NCCCN1)C(C(F)(F)F)C2 (stereo not drawn) [Compound 50]"
  IC50, M: "1.12e-07"
- MOLECULE: "O=C1NCCCNc2ccc(cn2)-c2ccnc(n2)Nc2cccc(c2)CN2CCN(CC2)C1CO (stereo not drawn) [Compound 65]"
  IC50, M: "1.66e-07"
- MOLECULE: "COCCN1CCNC(=O)CN2CCN(CC2)Cc2cccc(c2)Nc2nccc(n2)-c2ccc(nc2)C1 [Compound 42]"
  IC50, M: "3.24e-08"
- MOLECULE: "CN1CCCN(C)c2ccc(cn2)-c2ccnc(n2)Nc2cccc(c2)CN2CCCN(CC2)CC1=O [Compound 57]"
  IC50, M: "2.57e-06"
- MOLECULE: "CC1CN2CCN1Cc1cccc(c1)Nc1nccc(n1)-c1ccc(nc1)NCCCNC(=O)C2 (single isomer, unassigned) [Compound 61]"
  IC50, M: "1.32e-06"
- MOLECULE: "CN1CCCN(C)c2ccc(cn2)-c2ccnc(n2)Nc2cc(F)cc(c2)CN2CCN(CC2)CC1=O [Compound 6]"
  IC50, M: "6.61e-07"
- MOLECULE: "CC1CN2CCN1Cc1cccc(c1)Nc1nccc(n1)-c1ccc(nc1)N(C)CCCN(C)C(=O)C2 (stereo not drawn) [Compound 58]"
  IC50, M: "1.17e-07"
- MOLECULE: "CN1CCCN(C)c2ccc(cn2)-c2ccnc(n2)Nc2cccc(c2)CN2CCN(CC1=O)CC2CO (stereo not drawn) [Compound 51]"
  IC50, M: "1.55e-07"
- MOLECULE: "CN1CCCN(C)c2ccc(cn2)-c2ccnc(n2)Nc2cccc(c2)CN2CCN(CC1=O)C(CCO)C2 (stereo not drawn) [Compound 63]"
  IC50, M: "2.4e-07"
- MOLECULE: "CN(C)CCOCC1CN2CCN1Cc1cccc(c1)Nc1nccc(n1)-c1ccc(nc1)N(C)CCCN(C)C(=O)C2 (stereo not drawn) [Compound 108]"
  IC50, M: "2.09e-07"
- MOLECULE: "C#CCN1CCNC(=O)CN2CCN(CC2)Cc2cccc(c2)Nc2nccc(n2)-c2ccc(nc2)C1 [Compound 36]"
  IC50, M: "4.37e-08"
- MOLECULE: "O=C1CN2CCN(CC2)Cc2cc(F)cc(c2)Nc2nccc(n2)-c2ccc(nc2)NCCCN1 [Compound 5]"
  IC50, M: "7.59e-07"
- MOLECULE: "CN1CCN(C)c2ccc(cn2)-c2ccnc(n2)Nc2ccc(O)c(c2)CN2CCN(CC2)CC1=O [Compound 131]"
  IC50, M: "4.57e-07"
- MOLECULE: "O=C1CNCCNc2ccc(cn2)-c2ccnc(n2)Nc2cccc(c2)CN2CCN1CC2 [Compound 113]"
  IC50, M: "2.82e-06"
- MOLECULE: "CN1CCCN(C)c2ccc(cn2)-c2ccnc(n2)Nc2cccc(c2)CN2CCN(C)C(CC1=O)C2 (stereo not drawn) [Compound 129]"
  IC50, M: "9.55e-07"
- MOLECULE: "CN1CCCN(C)c2ccc(cn2)-c2ccnc(n2)Nc2ccnc(c2)CN2CCN(CC2)CC1=O [Compound 32]"
  IC50, M: "1.17e-07"

###

Molecular target: EF2K (Homo sapiens, UniProt O00418)
Construct: host or cells: LN-229 cell lysate
Test: EF2K cell-based assay (P-EF2 AlphaLISA, 2-deoxyglucose stimulated MCF10A cells)
Settings: 2.5 mM 2-deoxyglucose stimulated, P-EF2 Thr56, pIC50 = -log IC50 (M), read-out: eEF2K_C_PThr56 pIC50 (converted)

- COMPOUND: "O=C1CN2CCN(CC2)Cc2cccc(c2)Nc2nccc(n2)-c2ccc(nc2)NCC(O)CN1 (single isomer, unassigned) [Compound 25]"
  IC50: "> 3.02e-05 M"
- COMPOUND: "O=C1CN2CCN(CC2)Cc2cccc(c2)Nc2nccc(n2)-c2ccc(nc2)NCCCN1"
  IC50: "~3.98e-06 M"
- COMPOUND: "CC1CN2CCN1Cc1cccc(c1)Nc1nccc(n1)-c1ccc(nc1)NCCCNC(=O)C2 (single isomer, unassigned) [Compound 61]"
  IC50: "> 3.02e-05 M"
- COMPOUND: "COCCN1CCNC(=O)CN2CCN(CC2)Cc2cccc(c2)Nc2nccc(n2)-c2ccc(nc2)C1"
  IC50: "4.27e-07 M"

###

Biological target: Vps34 (PIK3C3 lipid kinase) (Homo sapiens, UniProt Q8NEB9)
Sequence (Q8NEB9 whole entry, species assumed): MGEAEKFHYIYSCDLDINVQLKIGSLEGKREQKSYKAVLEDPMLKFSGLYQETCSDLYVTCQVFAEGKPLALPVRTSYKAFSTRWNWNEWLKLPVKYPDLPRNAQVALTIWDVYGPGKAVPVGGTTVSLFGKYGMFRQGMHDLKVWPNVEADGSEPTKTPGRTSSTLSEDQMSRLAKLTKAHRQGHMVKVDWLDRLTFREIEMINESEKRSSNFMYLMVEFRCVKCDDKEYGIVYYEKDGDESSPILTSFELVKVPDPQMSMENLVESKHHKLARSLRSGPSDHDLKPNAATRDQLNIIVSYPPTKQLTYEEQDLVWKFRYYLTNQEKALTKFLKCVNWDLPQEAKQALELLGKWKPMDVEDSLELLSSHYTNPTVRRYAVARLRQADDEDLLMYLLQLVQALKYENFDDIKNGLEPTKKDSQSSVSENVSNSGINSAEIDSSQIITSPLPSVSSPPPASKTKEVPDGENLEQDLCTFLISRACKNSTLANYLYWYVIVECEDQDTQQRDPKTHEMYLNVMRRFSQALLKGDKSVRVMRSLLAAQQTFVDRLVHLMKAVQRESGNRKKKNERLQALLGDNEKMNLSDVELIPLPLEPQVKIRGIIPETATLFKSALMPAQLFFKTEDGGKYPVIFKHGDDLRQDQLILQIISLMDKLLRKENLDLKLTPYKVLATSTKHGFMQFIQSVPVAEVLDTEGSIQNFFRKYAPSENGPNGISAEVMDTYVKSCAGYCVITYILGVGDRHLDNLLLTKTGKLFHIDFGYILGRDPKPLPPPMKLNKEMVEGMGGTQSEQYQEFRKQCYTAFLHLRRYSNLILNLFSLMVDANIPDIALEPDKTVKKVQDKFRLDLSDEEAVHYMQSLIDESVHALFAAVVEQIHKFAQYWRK
Experiment: Biochemical Vps34 lipid kinase assay (ADP-Glo)
Conditions: single dose 1 μM compound; residual activity compared to control (DMSO)

- MOLECULE: "O=C1CN2CCN(Cc3cccc(c3)Nc3nccc(n3)-c3ccc(nc3)NCCCN1)C(CO)C2 (single isomer, unassigned) [Compound 48]"
  VPS34_1microM_% of cntrl: "3.34 % of cntrl"
- MOLECULE: "CC1CN2CCN1CC(=O)NCCCNc1ccc(cn1)-c1ccnc(n1)Nc1cccc(c1)C2 (single isomer, unassigned) [Compound 136]"
  VPS34_1microM_% of cntrl: "3.08 % of cntrl"
- MOLECULE: "O=C1CN2CCN(CC2)Cc2cccc(c2)Nc2nccc(n2)-c2ccc(nc2)N2CCCC2CN1 (stereo not drawn) [Compound 26]"
  VPS34_1microM_% of cntrl: "5.23 % of cntrl"
- MOLECULE: "CN1CCCN(C)c2ccc(cn2)-c2ccnc(n2)Nc2cccc(c2)CN2CCN(CC1=O)CC2CO (single isomer, unassigned)"
  VPS34_1microM_% of cntrl: "13.15 % of cntrl"
- MOLECULE: "O=C1CN2CCN(CC2)Cc2cccc(c2)Nc2nccc(n2)-c2ccc(nc2)N2CC(O)CC2CCN1 (single isomer, unassigned)"
  VPS34_1microM_% of cntrl: "15.81 % of cntrl"
- MOLECULE: "CC1CN2CCN1Cc1cccc(c1)Nc1nccc(n1)-c1ccc(nc1)NCCCNC(=O)C2 (single isomer, unassigned) [Compound 62]"
  VPS34_1microM_% of cntrl: "166.89 % of cntrl"
- MOLECULE: "O=C1CN2CCN(CC2)Cc2cccc(c2)Nc2nccc(n2)-c2ccc(nc2)N2CCCC2CN1 (stereo not drawn) [Compound 80]"
  VPS34_1microM_% of cntrl: "63.22 % of cntrl"
- MOLECULE: "O=C1CN2CCN(CC2)Cc2cccc(c2)Nc2nccc(n2)-c2ccc(nc2)NCC(O)CN1 (single isomer, unassigned)"
  VPS34_1microM_% of cntrl: "10.54 % of cntrl"
- MOLECULE: "CC1CN2CCN1Cc1cccc(c1)Nc1nccc(n1)-c1ccc(nc1)NCCCNC(=O)C2 (single isomer, unassigned) [Compound 61]"
  VPS34_1microM_% of cntrl: "6.78 % of cntrl"
- MOLECULE: "O=C1CN2CCN(Cc3cccc(c3)Nc3nccc(n3)-c3ccc(nc3)NCCCN1)C(CO)C2 (single isomer, unassigned) [Compound 47]"
  VPS34_1microM_% of cntrl: "7.88 % of cntrl"
- MOLECULE: "CC1CN2CCN1CC(=O)NCCCNc1ccc(cn1)-c1ccnc(n1)Nc1cccc(c1)C2 (single isomer, unassigned) [Compound 137]"
  VPS34_1microM_% of cntrl: "8.17 % of cntrl"
- MOLECULE: "CN1CCCN(C)c2ccc(cn2)-c2ccnc(n2)Nc2cccc(c2)CN2CCN(CC1=O)CC2COCCO (single isomer, unassigned)"
  VPS34_1microM_% of cntrl: "28.59 % of cntrl"
